Measured MIC, listed per entry.
- System: Micrococcus luteus
- method summary: Antibacterial activity against Micrococcus luteus ATCC 1110 after 18 hrs by conventional agar dilution method
- Assay type: functional
- condition info: ATCC 1110, 18 h
test readout: MIC (µg/mL)

>>> val("COc1c(N2CCN(c3nnc(-c4ccc([N+](=O)[O-])o4)s3)C(C)C2)c(F)cc2c(=O)c(C(=O)O)cn(C3CC3)c12 (stereo not drawn)")
0.125
>>> val("COc1c(N2CCN(c3nnc(-c4ccc([N+](=O)[O-])cc4)s3)C(C)C2)c(F)cc2c(=O)c(C(=O)O)cn(C3CC3)c12 (stereo not drawn)")
0.25
>>> val("COc1c(N2CCN(c3nnc(-c4ccccc4[N+](=O)[O-])s3)C(C)C2)c(F)cc2c(=O)c(C(=O)O)cn(C3CC3)c12 (stereo not drawn)")
0.5
